Data provenance is paper PMC6344228.

- Target or test system: CDK2-cyclin A (Homo sapiens, UniProt P24941)
Measured property: Ki (nM)
Reply with just the number (in nM).

Enquiry: CDK2-cyclin A (Homo sapiens, UniProt P24941) / Ki / CCn1cnc2c(Nc3cccc(Cl)c3)nc(NC3CCCCC3N)nc21 (stereo not shown) [CGP74514A] : value?
Return: 18.3

====

- Target or test system: CDK1-cyclin B (Homo sapiens, UniProt P06493)
- Construct: Full-length human CDK1 was expressed in insect cells either untagged (from pVL1393) or as a 3C-protease cleavable GST fusion; GST (N, cleaved yes); cyclin B1: E. coli
- Sequence (P06493 whole entry, the tested form may be a part): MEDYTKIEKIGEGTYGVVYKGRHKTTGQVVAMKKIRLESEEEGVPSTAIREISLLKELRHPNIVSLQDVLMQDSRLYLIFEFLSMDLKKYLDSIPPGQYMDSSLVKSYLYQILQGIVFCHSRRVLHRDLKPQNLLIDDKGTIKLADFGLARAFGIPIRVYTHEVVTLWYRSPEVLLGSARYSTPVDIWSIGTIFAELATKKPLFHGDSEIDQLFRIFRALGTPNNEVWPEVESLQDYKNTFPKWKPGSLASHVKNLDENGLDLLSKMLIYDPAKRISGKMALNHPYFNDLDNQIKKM
- Sequence (P14635 with tags, fused parts or gaps C167S/C238S/C350S partner limits assumed): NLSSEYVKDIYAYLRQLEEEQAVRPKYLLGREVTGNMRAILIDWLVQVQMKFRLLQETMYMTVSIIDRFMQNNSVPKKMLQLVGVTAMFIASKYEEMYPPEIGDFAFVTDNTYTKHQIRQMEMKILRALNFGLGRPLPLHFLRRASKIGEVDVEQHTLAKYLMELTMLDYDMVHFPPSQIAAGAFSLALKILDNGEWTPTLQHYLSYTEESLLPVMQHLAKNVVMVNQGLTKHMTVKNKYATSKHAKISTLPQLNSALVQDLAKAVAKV
- Assay summary: biochemical
- Run parameters: ADP-Glo; 20 μM ATP, 20 μM peptide; 4 nM CDK1-cyclin B; read-out: Ki (in parenthesis) Lab measurements CDK1B
- Protocol: Briefly, the 5 inhibitors in the study were titrated against phosphorylated CDK2–cyclin A and CDK1–cyclin B, with reaction initiated through addition of ATP and substrate peptide HHASPRK (Enzo Scientific). ATP to ADP conversion was assessed using the ADP-Glo assay (Promega) essentially as described by the manufacturers. […] All activity assays were performed in triplicate in white low volume 384-well plates using a PheraStar plate reader (BMG).
Measured property: Ki

Enquiry: What value of Ki has been recorded for this entry: CCn1cnc2c(Nc3cccc(Cl)c3)nc(NC3CCCCC3N)nc21 (stereo not shown) [CGP74514A]
Return: 0.463 µM

====

- Target or test system: phosphorylated monomeric CDK1 (Homo sapiens, UniProt P06493)
- Construct: Full-length human CDK1 was expressed in insect cells either untagged (from pVL1393) or as a 3C-protease cleavable GST fusion; GST (N, cleaved yes)
- Assay summary: biochemical
- Run parameters: phosphorylated monomeric (cyclin-free) CDK1; 30°C; n = 2, ± SD; read-out: ITC Kd CDK1
pKd: −log10 of the molar value.
Measured property: pKd

Enquiry: What value of pKd has been recorded for this entry: CCn1cnc2c(Nc3cccc(Cl)c3)nc(NC3CCCCC3N)nc21 (stereo not shown) [CGP74514A]
Return: < 4.70

====

- Target or test system: phosphorylated monomeric CDK2 (Homo sapiens, UniProt P24941)
- Construct: Human CDK2 (encompassing full length residues 1-298); GST (N, cleaved yes); made in house; host or cells: E. coli
- Assay summary: biochemical
- Assay type: binding
- Run parameters: phosphorylated monomeric (cyclin-free) CDK2; 30°C; n = 2, ± SD; read-out: ITC Kd CDK2
- Experimental: Individual protein samples were exchanged into ITC buffer (40 mM HEPES, 500 mM NaCl, 0.25 mM TCEP, pH 8.0) at 4°C using a Hitrap desalting column (GE Healthcare Life Sciences, Chicago, IL, USA) (i.e. CDK1 and cyclin B were not combined to form a complex prior to buffer exchange). Protein concentration was then determined at A280 nm using a Nanodrop 2000 (Thermoscientific, Waltham, MA, USA) and sequence derived extinction coefficients (http://web.expasy.org/protparam/). […]
Measured property: pKd
Interpret pKd as the negative base-10 log of the concentration measured in mol/L.

Enquiry: What value of pKd has been recorded for this entry: CCn1cnc2c(Nc3cccc(Cl)c3)nc(NC3CCCCC3N)nc21 (stereo not shown) [CGP74514A]
Return: 6.15

====

- Target or test system: GST-tagged unphosphorylated CDK2 (Homo sapiens, UniProt P24941)
- Construct: Human CDK2 (encompassing full length residues 1-298)
- Assay summary: biochemical
- Run parameters: unphosphorylated monomeric GST-CDK2; 20°C; duplicate, ± SD; read-out: SPR Kd CDK2
Measured property: Kd (nM)
Reply with just the number (in nM).

Enquiry: What value of Kd has been recorded for this entry: CCn1cnc2c(Nc3cccc(Cl)c3)nc(NC3CCCCC3N)nc21 (stereo not shown) [CGP74514A]
Return: 312

====

- Target or test system: CDK1-cyclin B (Homo sapiens, UniProt P06493)
- Construct: Full-length human CDK1 was expressed in insect cells either untagged (from pVL1393) or as a 3C-protease cleavable GST fusion; GST (N, cleaved yes); cyclin B1: E. coli
- Assay summary: biochemical
- Run parameters: phosphorylated CDK1-cyclin B complex; 30°C; n = 2, ± SD; read-out: ITC Kd CDK1B
Measured property: pKd
Interpret pKd as the negative base-10 log of the concentration measured in mol/L.

Enquiry: What value of pKd has been recorded for this entry: CCn1cnc2c(Nc3cccc(Cl)c3)nc(NC3CCCCC3N)nc21 (stereo not shown) [CGP74514A]
Return: 6.02
